Biological target: T1, cynomolgus monkey PD-1-his protein (Acro biosystems, #PD-1-C5223) (cynomolgus monkey, UniProt B0LAJ3 25-170)
T1 construct: Bought protein; also called Cynomolgus PD-1; Cynomolgus PD1
T1 sequence (B0LAJ3 entry or part of it limits assumed): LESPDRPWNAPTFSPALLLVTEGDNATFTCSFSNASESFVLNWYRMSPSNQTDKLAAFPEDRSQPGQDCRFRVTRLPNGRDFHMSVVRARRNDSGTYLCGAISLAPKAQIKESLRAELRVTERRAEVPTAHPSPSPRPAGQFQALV
Assay: SPR (Biacore T200), antibody captured, antigen flowed
reported endpoint: Kd (nM)

binder="mouse anti-PD-1 monoclonal antibody C1C5 (antibody, mouse IgG1, kappa, V domains shown, Purified from hybridoma; Constant regions tied only generically to 'mouse antibodies') VH: QIQLVQSGPELKKPGETVKISCKASGYTFTNYGINWVKQAPGKGLKWMGWINTYSGEPTYSDDFKGRFAFSLETSASTAYLQINNLKNEDTSTYFCVRQGDFDYEDAMDYWGQGTSVTVSS VL: DVLMTQSPLSLPVSLGDQASISCRSSQSIVHSNGHIYLEWYLQKPGQSPKLLIYKVSKRFSGVPDRFSGSGSGTDFTLKISRVEAEDLGVYYCFQGSHGTFGGGTKLEIKR" reported_endpoint=Kd result_number=14.6
binder="mouse anti-PD-1 monoclonal antibody C1F4 (antibody, mouse IgG1, kappa, V domains shown, Purified from hybridoma; Constant regions tied only generically to 'mouse antibodies') VH: QVQLQQSGAELVRPGVSVKISCKGSGYKFTDYAMHWVRQSHAKSLEWIGIISTYSGDVSFNQNFKGKATMTVDKSSSTAYMELARLTSEDSAIYYCSRLGITAGFAYWGQGTLVTVSA VL: DIVMTQSQKFMSTSVGDRVTITCKASQNVRTAVAWYQQKPGQSPKALIYLASNRHTGVPDRFTGSGSGTDFTLTISNVQSKDLADYFCLQHWNYPYTFGGGTKLEIKR" reported_endpoint=Kd result_number=17.3
binder="mouse anti-PD-1 monoclonal antibody D1A1 (antibody, mouse IgG1, kappa, V domains shown, Purified from hybridoma; Constant regions tied only generically to 'mouse antibodies') VH: EVMLVESGGGLVKPGGSLKLSCAASGFTFSNYAMSWVRQTPEKRLEWVATISGGGGNIYYPDSVKGRFTISRDNARNTLYLQMSSLRSEDTALYYCASPYANYVWYLDVWGAGTTVTVSS VL: DIQMTQTTSSLSASLGDRVTISCRASQDISNYLNWYQQKPDGTVKLLIYYTSRLHSGVPSRFSGSGSGTDFSLTISNLEEEDIATYFCQQSNALPWTFGGGTKLEIKR" reported_endpoint=Kd result_number=11.3
binder="mouse anti-PD-1 monoclonal antibody C1F5 (antibody, mouse IgG1, kappa, V domains shown, Purified from hybridoma; Constant regions tied only generically to 'mouse antibodies') VH: EVQLVESGGGLVKPGGSLKLSCAASGFAFSSYDMSWVRQTPEKRLEWVAYITGGGSSSFYPDTVKGRFTISRDNSKNTLYLQMTSLRSEDTAMYYCASPYLSYFDYWGQGTTLTVSS VL: DIVLTQSPATLSVTPGDSVSLSCRASQSISNNLHWYQQKSHESPRLLIKYGSQSMSGIPSRFSGSGSGTDFTLVINSVETEDFGMYFCQQSNSWPLTFGAGTKLELKR" reported_endpoint=Kd result_number=18.1
binder="mouse anti-PD-1 monoclonal antibody C1A1 (antibody, mouse IgG1, kappa, V domains shown, Purified from hybridoma; Constant regions tied only generically to 'mouse antibodies') VH: QVTLKESGPGILKPSQTLSLTCSFSGFSLSTSGMGVGWIRQPSGKGLEWLAHIWWDDDKFYNPSLKSQLTISKDTSRNQVFLKITSVDTADTATYYCARTGGFITTGYWYFDVWGAGTTVTVSS VL: DIQMTQTTSSLSASLGDRVTISCRASQDISNYLIWYQQKTDGTLKLLIYYTSRLHSGVPSRFSGSGSGTDYSLTISNLEQEDIATYFCQQHKTLPWTFGGGTKLEIKR" reported_endpoint=Kd result_number=9.5
binder="mouse anti-PD-1 monoclonal antibody C1E2 (antibody, mouse IgG1, kappa, V domains shown, Purified from hybridoma; Constant regions tied only generically to 'mouse antibodies') VH: QVQLQQSGAELVRPGTSVKISCKASGYTFTNYWLGWVKQRPGHGLEWIGDIYPGGGYTNYNENFKGKATLTADTSSSTAYMQLSSLTSEDSAVFFCARGYGTNYWYFDVWGAGTTVTVSS VL: SIVMTQTPKFLLVSAGDRVTITCKASQSVSNDVAWYQQKPGQSPKLLIYYAFHRYTGVPDRFTGSGYGTDFTFTISTVQAEDLAVYFCQQDYSSPYTFGGGTKLEIKR" reported_endpoint=Kd result_number=12.5
binder="mouse anti-PD-1 monoclonal antibody 2G2 (antibody, mouse IgG1, kappa, V domains shown, Purified from hybridoma; Constant regions tied only generically to 'mouse antibodies'; also called Clone 2G2) VH: EVQLVESGGDLVKPGGSLKLSCTASGFTFSYYGMSWVRQTPDKRLEWVATISSGSSFTYSPDSVKGRFTISRDNAKNTLYLQMNSLKSEDTAIYYCTRREGIYDASWDYSMDYWGQGTSVTVSS VL: DVLMTQTPLSLPVSLGDQASISCRSSQSIIRSNGNTYLEWYLQKPGQSPKLLIYKVSNRFSGVPDRFSGSGSGTDFTLKISRVEADDLGLYYCFQGSHVPWTFGGGTKLEIKR" reported_endpoint=Kd result_number=13
binder="mouse anti-PD-1 monoclonal antibody D1F2 (antibody, mouse IgG1, kappa, V domains shown, Purified from hybridoma; Constant regions tied only generically to 'mouse antibodies') VH: EVMLVESGGGLVKPGGSLKLSCAASGFTFSSYTMSWVRQTPEKRLEWVATISGGGSNIYYPDSVEGRFTVSRDNARNTLYLHMSSLRSEDTALYYCVLNYAYAMDYWGQGTSVTVSS VL: DIQMTQTTSSLSASLGDRVTISCRASQDISNFLNWYQQKPDGTVKLLIYYTSRLQSGVPSRFSGTGSGTDYSLTISNLEQEDLATYFCQQGSSLPWTFGGGTKLEIKR" reported_endpoint=Kd result_number=31.7
